Provide the recorded viability at 24 h, 50 µM for the entries that follow.
- ASSAY_PROCEDURE: Cytotoxicity against human HepG2 cells assessed as cell viability at 5 to 50 uM measured after 24 hrs by MTT assay
- Assay type: cell-based
- MEASUREMENT_SETUP: read-out: Activity

compound_structure=COc1ccc(-c2nn(-c3ccccc3F)c3c2CCS(=O)(=O)O3)cc1 reported_property="viability at 24 h, 50 µM" readout_value="> 90%"

Request the reported viability at 24 h, 50 µM associated with COc1ccc(-c2nn(-c3ccccc3Cl)c3c2CCS(=O)(=O)O3)cc1
> 90%

---

- MEASURED_ON: Cholinesterase (Equus caballus, UniProt P81908)
- Sequence (P81908 whole entry): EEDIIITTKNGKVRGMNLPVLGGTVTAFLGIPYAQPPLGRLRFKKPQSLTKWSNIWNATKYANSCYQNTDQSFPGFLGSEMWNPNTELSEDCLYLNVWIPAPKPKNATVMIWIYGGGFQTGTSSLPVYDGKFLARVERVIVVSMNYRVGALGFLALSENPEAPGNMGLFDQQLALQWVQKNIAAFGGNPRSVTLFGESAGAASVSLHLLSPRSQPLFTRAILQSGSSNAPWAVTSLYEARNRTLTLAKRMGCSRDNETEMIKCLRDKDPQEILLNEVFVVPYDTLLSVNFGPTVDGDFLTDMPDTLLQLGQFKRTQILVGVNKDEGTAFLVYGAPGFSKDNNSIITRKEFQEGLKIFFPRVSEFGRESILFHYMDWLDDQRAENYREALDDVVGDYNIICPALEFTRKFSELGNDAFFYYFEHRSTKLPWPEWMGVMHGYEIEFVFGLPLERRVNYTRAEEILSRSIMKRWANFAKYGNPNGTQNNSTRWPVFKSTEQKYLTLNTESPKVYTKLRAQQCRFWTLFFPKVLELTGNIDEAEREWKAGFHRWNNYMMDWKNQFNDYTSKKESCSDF
- ASSAY_PROCEDURE: Inhibition of equine serum BChE using varying levels of butyrylthiocholine iodide as substrate by Line weaver Burk reciprocal plot analysis
REPORTED_PROPERTY: pKi
Answers are plain numbers, as −log10 of the molar value.

compound_structure=COc1ccc(-c2nn(-c3ccccc3F)c3c2CCS(=O)(=O)O3)cc1 reported_property=pKi readout_value=6.84

API: the following record is the query input.
Any idea what its pKi is? The compound is COc1ccc(-c2nn(-c3ccccc3Cl)c3c2CCS(=O)(=O)O3)cc1
7.22
